Reported values of pIC50 for individual entries
measuredOn: human CSNK1A1 (Homo sapiens (Human))
Sequence (P48729 whole entry): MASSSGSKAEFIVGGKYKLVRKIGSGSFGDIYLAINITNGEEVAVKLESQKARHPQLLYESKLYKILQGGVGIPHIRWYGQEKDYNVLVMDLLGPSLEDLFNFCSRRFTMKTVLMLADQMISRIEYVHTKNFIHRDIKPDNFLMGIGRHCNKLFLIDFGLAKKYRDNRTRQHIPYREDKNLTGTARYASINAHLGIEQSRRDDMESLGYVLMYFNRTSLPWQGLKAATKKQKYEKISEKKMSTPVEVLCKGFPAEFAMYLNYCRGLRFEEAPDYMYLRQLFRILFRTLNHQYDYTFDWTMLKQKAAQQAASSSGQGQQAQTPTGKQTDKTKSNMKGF
experimentalProtocol: CSNK1A1 Assay 2 (ADP-Glo, 1 μM ATP)
Type: biochemical
conditionLabel: substrate biotin-Ahx-KRRRAL-pS-VASLPGL, read-out: CSNK1A1 Assay 2 IC50 [mol/l] (median)
Formally, pIC50 is defined as -log10 of the concentration c, with c in mol/L.

CC(C(=O)Nc1cc(-c2[nH]c3c(c2Nc2ccccc2)C(=O)N(C)C(C)C3)ccn1)c1ccc(F)cc1 (single isomer, unassigned; (+)) [Example 92]
8.33

Give pIC50 for the following compound: Cc1ccccc1Nc1c(-c2ccnc(NC(=O)C(C)c3ccc(F)cc3)c2)[nH]c2c1C(=O)NC(C)(C)C2 (single isomer, unassigned; enantiomer 2) [Example 134]
7.72

Give pIC50 for the following compound: CN1CCc2[nH]c(-c3ccnc(NC(=O)Cc4ccc(F)cc4)c3)c(Nc3cccc(F)c3F)c2C1=O
8.48

Give pIC50 for the following compound: CC1Cc2[nH]c(-c3ccnc(NC(=O)Cc4ccc(F)cc4)c3)c(Nc3ccccc3)c2C(=O)N1C (racemic) [Example 88]
8.63

Give pIC50 for the following compound: CC(C(=O)Nc1cc(-c2[nH]c3c(c2Nc2ccccc2)C(=O)N(C)C(C)C3)ccn1)c1ccc(F)cc1 (single isomer, unassigned; (-)) [Example 95]
7.34

Give pIC50 for the following compound: CN1CCc2[nH]c(-c3ccnc(NC(=O)Cc4ccc(C(F)(F)F)cc4)c3)c(Nc3ccccc3)c2C1=O
8.56

Give pIC50 for the following compound: CC(C(=O)Nc1cc(-c2[nH]c3c(c2Nc2ccccc2)C(=O)N(C)CC3)ccn1)c1ccncc1 (single isomer, unassigned; (+)) [Example 73]
8.62

Give pIC50 for the following compound: CN1CCc2[nH]c(-c3ccnc(NC(=O)Cc4ccc(S(C)(=O)=O)cc4)c3)c(Nc3ccccc3)c2C1=O
8.82

Give pIC50 for the following compound: CN1C(=O)c2c([nH]c(-c3ccnc(NC(=O)C(CC(F)F)c4ccc(F)cc4)c3)c2Nc2ccccc2F)CC1(C)C (racemic) [Example 45]
7.79

Give pIC50 for the following compound: CC(C(=O)Nc1cc(-c2[nH]c3c(c2Nc2ccccc2)C(=O)N(C)C2(CCC2)C3)ccn1)c1ccc(F)cc1 (single isomer, unassigned; enantiomer 2) [Example 159]
7.04

Give pIC50 for the following compound: CC(C(=O)Nc1cc(-c2[nH]c3c(c2Nc2ccccc2)C(=O)N(C)CC3)ccn1)c1ccc(Cl)cc1 (racemic) [Example 79]
8.05

Give pIC50 for the following compound: CC1(C)Cc2[nH]c(-c3ccnc(NC(=O)C(CC(F)F)c4ccc(F)cc4)c3)c(Nc3cccc(F)n3)c2C(=O)N1 (single isomer, unassigned; enantiomer 1) [Example 129]
8.47

* * *

Reported values of log10 of IC50 for individual entries
measuredOn: human CSNK1A1 (Homo sapiens (Human))
experimentalProtocol: CSNK1A1 Assay 2 (ADP-Glo, 1 μM ATP)
Type: biochemical
conditionLabel: substrate biotin-Ahx-KRRRAL-pS-VASLPGL, read-out: CSNK1A1 Assay 2 IC50 [mol/l] (median)
// units: nM (pre-log); metric: IC50; scale: log10

CN1CCc2[nH]c(-c3ccnc(NC(=O)C(CC(F)F)c4ccc(F)cc4)c3)c(Nc3ccccc3)c2C1=O (single isomer, unassigned; (+)) [Example 63]
0.33
CN1CCc2[nH]c(-c3ccnc(NC(=O)C(CC(F)F)c4ccc(F)cc4)c3)c(Nc3ccccc3)c2C1=O (single isomer, unassigned; (-)) [Example 62]
1.32
Cc1cc(CC(=O)Nc2cc(-c3[nH]c4c(c3Nc3ccccc3)C(=O)N(C)CC4)ccn2)ccn1 [Example 85]
0.25

Give log10 of IC50 for the following compound: CC1Cc2[nH]c(-c3ccnc(NC(=O)Cc4ccc(F)cc4)c3)c(Nc3ccccc3F)c2C(=O)N1C (single isomer, unassigned; (+)) [Example 101]
0.57

Give log10 of IC50 for the following compound: O=C1NC2(CCC2)Cc2[nH]c(-c3ccnc(NC(=O)C(CC(F)F)c4ccc(F)cc4)c3)c(Nc3ccccc3)c21 (racemic) [Example 54]
0.66

Give log10 of IC50 for the following compound: CN1C(=O)c2c([nH]c(-c3ccnc(NC(=O)C(CC(F)F)c4ccc(F)cc4)c3)c2Nc2ccccc2)CC12CCC2 (single isomer, unassigned; enantiomer 2) [Example 162]
1.78
